Reference source for all entries: the nanobody polyreactivity screen of Harvey et al. (2022)

Assay: yeast display, Sf9 membrane polyspecificity reagent, FACS + sequencing; frameworks hold sequencing errors
experimental_endpoint: polyreactivity (PSR sort gate)

QVQLVESGGGLDQAGGSLRLSCAASGITVTSYVMGWYRQAHWKERELVAAIRWSGGRTYYADSVKGRFTISRDNAKNTVYLQMNSLKPEDTAVYYCNRVTRSHVDYWGQGTQVTVSS	high polyreactivity
QVQLVESGGGLVQAGGSLRLSCAASGRIIGFNAMGWYRQAPGKERELVASIRTTGGSTRYADSVKGRFTISRDNAKNTVYLQMNSLKPEDTAVYDCAARWGKTLWQYNYWGQGTQVTVSS	high polyreactivity
QVQLEDAGGGLVQAGGSLRLSCAASGRIIGWYTIGRYRQAPGKERELVATSSSSGASTYYADSVKGRFTISRDNAKNSVYFQMNSLKPEDTGVYYCAAQYYPYSFAHRYGYWGQGSQVTVSS	high polyreactivity
QVQLVESGGGLVQAGGSLRLSCAASGFIIYGYVMGWYRQAPGKERELVAAINSSSGRTYYADSVKGRFTISRDNAKNTVYLQMNSLKPEDTAVYYCAAYYYGSYDGTPYDYRGQGTQVTVSS	low polyreactivity
QVQLVESGGGLVQAGGSLRLSCAASGRIFIVYAMGRYRQAPGKERELVAAISWNGGRTYYADSVKGRFTISRDNAKNTVYLQMNSLKPEDTAVYYCNAVALYPYTTYDYWGQGTQVTVSS	high polyreactivity
QVQLVESGGGLVQAGGSLRLSSDDSGFTFVSNAMGWYRQAPGKEMELVAVISSGGSTTYADSVKGRFTISRDNAKNTVYLQMNSLKPEDTAVYYCATTNYQDSYEGGDYWGQGTQVTVSS	low polyreactivity

Now for another entry.
Data request: Look up polyreactivity (PSR sort gate): `QVQLVESGGGLVQAGGSLRLSCAASGRTGVNAMGWYRQAPGKERELVAAINNGDSTYYADSVKGRFTISRDNAKKTVYLQMNSLNPEDTAVYYCAAGLDEGDYWQESDYWGQGTQVTVSS`
Data returned: low polyreactivity
